# protocol_summary: Aqueous solubility in PBS
# Assay type: physicochemical
// reported Sol. per item

The examples below pair each entry with its known result.
> print(dat)
                                   molecule  readout.type       result
1  Cc1ccccc1-c1nc(CN2CCC(C(=O)N3CCN(C4CCN(C)CC4)CC3)CC2)c(C)o1          Sol.  >71.0 µg/mL
2  Cc1cccc(Cl)c1-c1nc(CN2CCC(C(=O)NCCCN3CCC(C(C)C)CC3)CC2)c(C)o1          Sol.    >76 µg/mL
3  Cc1ccccc1-c1nc(CC2CCC[C@@H](C(=O)CCCCN3C[C@H](C)C[C@H](C)C3)C2)c(C)o1 (stereo partly drawn)          Sol.   57.8 µg/mL
4  Cc1cccc(Cl)c1-c1nc(CN2CCC(C(=O)NCCCN3CCC(C)(C)CC3)CC2)c(C)o1          Sol.    >74 µg/mL
5  Cc1ccc2ccccc2c1-c1nc(CN2CCC(C(=O)NCCCN3C[C@H](C)C[C@H](C)C3)CC2)c(C)o1 [Compound 39]          Sol.  >76.0 µg/mL
6  Cc1oc(-c2ccc(Cl)cc2)nc1CN1CCC(C(=O)NCCCN2C[C@H](C)C[C@H](C)C2)CC1          Sol.  >72.0 µg/mL
7  Cc1oc(-c2c3ccccc3cc3ccccc23)nc1CN1CCC(C(=O)NCCCN2C[C@H](C)C[C@H](C)C2)CC1          Sol.   62.1 µg/mL
8  Cc1ccccc1-c1nc(CN2CCC(C(=O)NCCCN3CCOCC3)CC2)c(C)o1          Sol.  >65.0 µg/mL

What Sol. value was documented for this molecule, C[C@@H]1C[C@H](C)CN(CCCNC(=O)C2CCN(Cc3oc(-c4cc(C(F)(F)F)cc(C(F)(F)F)c4)nc3C(F)(F)F)CC2)C1 ?
2.5 µg/mL

What Sol. value was documented for this molecule, Cc1oc(-c2c(F)cccc2F)nc1CN1CCC(C(=O)NCCCN2C[C@H](C)C[C@H](C)C2)CC1 ?
>72.0 µg/mL

What Sol. value was documented for this molecule, Cc1ccc(-c2nc(CN3CCC(C(=O)NCCCN4C[C@H](C)C[C@H](C)C4)CC3)c(C)o2)c(C)c1 ?
>71.0 µg/mL

----------
# protocol_summary: Aqueous solubility in PBS
# Type: physicochemical
// reported Sol. per item

The examples below pair each entry with its known result.
> print(dat)
                                   compound       result
1  Cc1cccc(-c2nc(CN3CCC(C(=O)NCCCN4C[C@H](C)C[C@H](C)C4)CC3)c(C)o2)c1 [Compound 18]  >69.0 µg/mL
2  Cc1ccccc1-c1nc(CN2CCC(C(=O)NCCCN3[C@H](C)CCC[C@@H]3C)CC2)c(C)o1 [Compound 51]  >69.0 µg/mL
3  Cc1ccccc1-c1nc(CN2CCC(C(=O)NCCN3C[C@H](C)C[C@H](C)C3)CC2)c(C)o1 [Compound 20]  >67.0 µg/mL
4  Cc1ccccc1-c1nc(CN2CCC(C(=O)NCCCN3CCCC(C(C)C)C3)CC2)c(C)o1 (stereo not shown) [Compound 52]    >71 µg/mL
5  Cc1ccccc1-c1nc(CN2CCC(C(=O)NCCCN3CCCC(CC(C)C)C3)CC2)c(C)o1 (stereo not shown) [Compound 53]   54.9 µg/mL

What Sol. value was documented for this compound, Cc1ccc2ccccc2c1-c1nc(CN2CCC(C(=O)NCCCN3C[C@H](C)C[C@H](C)C3)CC2)c(C)o1 [Compound 62] ?
>76.1 µg/mL

What Sol. value was documented for this compound, Cc1ccc(-c2nc(CN3CCC(C(=O)NCCCN4C[C@H](C)C[C@H](C)C4)CC3)c(C)o2)cc1C [Compound 22] ?
>71.0 µg/mL

----------
# protocol_summary: Cell permeability
# Type: in vitro ADME
Use Satisfied when the recorded Permeability (le^−6 cm/s) is no lower than 900 le^−6 cm/s; use Not satisfied when it is lower.

> print(dat)
                                   molecule     class.name
1  CC1CCCN(CCCNC(=O)C2CCN(Cc3oc(-c4cc(C(F)(F)F)cc(C(F)(F)F)c4)nc3C(F)(F)F)CC2)C1 (stereo not shown)      Satisfied
2  Cc1ccccc1-c1nc(CC2CCC[C@@H](C(=O)CCCCN3C[C@H](C)C[C@H](C)C3)C2)c(C)o1 (stereo partly shown)  Not satisfied

Check if Permeability (le^−6 cm/s) >= 900 le^−6 cm/s (inclusive). Item: CCN(CC)CCCCNC(=O)C1CCN(Cc2nc(-c3cc(OC)cc(OC)c3)oc2C)CC1
Not satisfied

Check if Permeability (le^−6 cm/s) >= 900 le^−6 cm/s (inclusive). Item: C[C@@H]1C[C@H](C)CN(CCCNC(=O)C2CCN(Cc3oc(-c4cc(C(F)(F)F)cc(C(F)(F)F)c4)nc3C(F)(F)F)CC2)C1
Satisfied

Check if Permeability (le^−6 cm/s) >= 900 le^−6 cm/s (inclusive). Item: Cc1ccccc1-c1nc(CN2CCC(C(=O)NCCN3CCCCC3)CC2)c(C)o1
Satisfied

Check if Permeability (le^−6 cm/s) >= 900 le^−6 cm/s (inclusive). Item: Cc1oc(-c2c(C)c(C)c(C)c(C)c2C)nc1CN1CCC(C(=O)NCCCN2C[C@H](C)C[C@H](C)C2)CC1
Not satisfied

Check if Permeability (le^−6 cm/s) >= 900 le^−6 cm/s (inclusive). Item: Cc1ccccc1-c1nc(CN2CCC[C@@H](C(=O)NCCCN3C[C@H](C)C[C@H](C)C3)C2)c(C)o1
Not satisfied

----------
# protocol_summary: in vitro
# condition_context: rat, microsomes, Rat liver microsomes t ½ (min)
// reported half-life per item

The examples below pair each entry with its known result.
> print(dat)
                                   compound    result
1  CC1CCCN(CCCNC(=O)C2CCN(Cc3oc(-c4cc(C(F)(F)F)cc(C(F)(F)F)c4)nc3C(F)(F)F)CC2)C1 (stereo not shown) [Compound 69]   5.7 min
2  C[C@@H]1C[C@H](C)CN(CCCNC(=O)C2CCN(Cc3oc(-c4cc(C(F)(F)F)cc(C(F)(F)F)c4)nc3C(F)(F)F)CC2)C1 [Compound 68]  16.4 min
3  Cc1ccccc1-c1nc(CN2CCC[C@@H](C(=O)NCCCN3C[C@H](C)C[C@H](C)C3)C2)c(C)o1 [Compound 67]   3.9 min

// moving on: another record for half-life
What half-life value was documented for this compound, Cc1ccccc1-c1nc(CC2CCC[C@@H](C(=O)CCCCN3C[C@H](C)C[C@H](C)C3)C2)c(C)o1 (stereo partly shown) [Compound 66] ?
3.9 min

----------
# protocol_summary: Aqueous solubility in PBS
# Assay type: physicochemical
readout_type: Sol.

> print(dat)
                                    compound       result
 1  Cc1ccccc1-c1nc(CN2CCC(C(=O)NCCCN3C[C@H](C)C[C@H](C)C3)CC2)c(C)o1 [Compound 26]  >69.0 µg/mL
 2  Cc1ccccc1-c1nc(CN2CCC(C(=O)NCCN3CCCCC3)CC2)c(C)o1     47 µg/mL
 3  Cc1ccc(C)c(-c2nc(CN3CCC(C(=O)NCCCN4C[C@H](C)C[C@H](C)C4)CC3)c(C)o2)c1   56.1 µg/mL
 4  Cc1ccccc1-c1nc(CN2CCC(C(=O)N3CCN(CCN(C)C)CC3)CC2)c(C)o1  >67.0 µg/mL
 5  Cc1cc(C)cc(-c2nc(CN3CCC(C(=O)NCCCN4C[C@H](C)C[C@H](C)C4)CC3)c(C)o2)c1  >71.0 µg/mL
 6  COc1cccc(Br)c1-c1nc(CN2CCC(C(=O)NCCCN3C[C@H](C)C[C@H](C)C3)CC2)c(C)o1  >83.0 µg/mL
 7  Cc1ccccc1-c1nc(CN2CCC(C(=O)NCCCN3C[C@H](C)C[C@@H](C)C3)CC2)c(C)o1  >69.0 µg/mL
 8  Cc1oc(-c2c(Cl)cccc2C(F)(F)F)nc1CN1CCC(C(=O)NCCCN2C[C@H](C)C[C@H](C)C2)CC1   65.1 µg/mL
 9  CCc1ccccc1-c1nc(CN2CCC(C(=O)NCCCN3C[C@H](C)C[C@H](C)C3)CC2)c(C)o1   55.9 µg/mL
10  Cc1cccc(Cl)c1-c1nc(CN2CCC(C(=O)NCCCN3C[C@H](C)C[C@H](C)C3)CC2)c(C)o1  >74.0 µg/mL

// moving on: another record for Sol.
What Sol. value was documented for this compound, Cc1ccccc1-c1nc(CN2CCC[C@@H](C(=O)NCCCN3C[C@H](C)C[C@H](C)C3)C2)c(C)o1 ?
57.8 µg/mL

Data origin, for the record: patent US10202367B2
